Listed compounds paired with reported GI50
- Test system: BT-549
- protocol.details: NCI tumour cell line growth inhibition, 48 h
The source made the active and inactive calls. Rule as the data show it: active = GI50 up to about 1.1 µM and inactive = higher. Residues, ends and D or L forms follow the SMILES beside them. Groups on a side chain read outwards from the residue. *: point of attachment. Cbz = O=C(OCc1ccccc1)*; Boc = CC(C)(C)OC(=O)*

{"compound": "CCc1cc2c(oc3cc(C)ccc32)c(=O)n1C", "GI50": "> 10 µM (inactive)"}
{"compound": "COc1cccc(C2c3cc4c(cc3OC(NNS(=O)(=O)c3ccc(C)cc3)C2C)OCO4)c1O (configuration not stated)", "GI50": "19.7 µM (inactive)"}
{"compound": "Cc1cc2c(cc1-c1cc3c(cc1C)C(C(C)C)=C(O)C(=O)/C3=C\\Nc1nc(-c3ccccc3)cs1)/C(=C/Nc1nc(-c3ccccc3)cs1)C(=O)C(O)=C2C(C)C", "GI50": "23.8 µM (inactive)"}
{"compound": "Cc1ccc(-c2nc3cc(F)c(N4CCN(C)CC4)cc3[nH]2)cc1", "GI50": "22.1 µM (inactive)"}
{"compound": "O=C1NN=C2C=C(c3ccc(Cl)cc3)CC(c3cccc(Br)c3)C12 (configuration not stated)", "GI50": "> 100 µM (inactive)"}
{"compound": "COc1ccc2c(O)c(S(=O)(=O)c3ccc(C)cc3)c(=O)oc2c1OC", "GI50": "> 100 µM (inactive)"}
{"compound": "C[C@]12C(=O)OC[C@H](c3ccccc3)N1C(=O)N(Cc1ccccc1)[C@@H]2CO", "GI50": "> 100 µM (inactive)"}
{"compound": "CC1CCC(C(C)C)C(OC(=O)NCn2cc(-c3ccccc3)nn2)C1 (configuration not stated)", "GI50": "> 100 µM (inactive)"}
{"compound": "CC(C)(C)OC(=O)NC(CCCCNC(=O)CNC(=O)OCc1ccccc1)C(=O)NC(CCCCNC(=O)CNC(=O)OCc1ccccc1)C(=O)NC(CCCCNC(=O)CNC(=O)OCc1ccccc1)C(=O)NC(CCCCNC(=O)CNC(=O)OCc1ccccc1)C(=O)O (configuration not stated) (Boc-K([Gly-Cbz])K([Gly-Cbz])K([Gly-Cbz])K([Gly-Cbz])-OH; configuration not given here)", "GI50": "> 100 µM (inactive)"}
{"compound": "O=C1CCCC/C1=C1/SC(=N/c2ccccc2)/C(=N\\c2ccccc2)N1c1ccccc1", "GI50": "> 100 µM (inactive)"}
{"compound": "COC(=O)[C@@H](NC(=O)N(CCC#N)CCCN(C(=O)N[C@H](Cc1ccccc1)C(=O)OC)c1ccccc1)C(C)C", "GI50": "> 100 µM (inactive)"}
{"compound": "O=C(n1c(=O)n(-c2ccc(Cl)cc2)c(=O)n1C(=O)C(Cl)(Cl)Cl)C(Cl)(Cl)Cl", "GI50": "66.5 µM (inactive)"}
{"compound": "CS(=O)(=O)CCC1CCC(=O)O1 (configuration not stated)", "GI50": "53 µM (inactive)"}
{"compound": "c1ccc2c(c1)CC1c3[nH]c4ccccc4c3CCN21 (configuration not stated)", "GI50": "> 10 µM (inactive)"}
{"compound": "C[N+](C)(C)CCN[N+]1(C)CCCc2ccccc21 (configuration not stated)", "GI50": "> 100 µM (inactive)"}
{"compound": "COC(=O)C1=COc2c(n(C)c3ccccc23)-c2ccccc21", "GI50": "> 100 µM (inactive)"}
{"compound": "COc1ccc(C2CC(c3cc4c(C)c(C(=O)c5ccccc5)oc4cc3O)=Nc3ccccc3S2)cc1OC (configuration not stated)", "GI50": "> 56.5 µM (inactive)"}
